Data origin: patent US20180057505A1

- assay-target: PAR2 (HT-29 cells) (Homo sapiens)
- Construct: host or cells: HT-29
- Sequence (P55085 26-397): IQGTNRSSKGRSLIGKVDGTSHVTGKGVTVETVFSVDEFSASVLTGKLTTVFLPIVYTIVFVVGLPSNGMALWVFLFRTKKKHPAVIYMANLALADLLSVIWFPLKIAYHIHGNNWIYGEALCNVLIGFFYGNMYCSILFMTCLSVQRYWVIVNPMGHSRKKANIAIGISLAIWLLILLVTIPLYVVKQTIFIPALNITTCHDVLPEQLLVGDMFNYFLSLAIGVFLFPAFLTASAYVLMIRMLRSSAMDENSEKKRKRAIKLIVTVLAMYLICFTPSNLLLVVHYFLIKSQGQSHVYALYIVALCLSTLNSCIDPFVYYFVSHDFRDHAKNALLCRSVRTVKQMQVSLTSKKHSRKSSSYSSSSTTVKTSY
- assay-info: Ca FLIPR TETRA assay, ANTAGONIST mode, activator 8 μM SLIGKV
- Format: cell-based
- experimental-parameters: HT-29 cells; activator 8 μM SLIGKV; Method A: maximal concentration of antagonist 0.1, 1 or 2 μM
pIC50: −log10 of the molar value.
readout-kind: pIC50

[A] CC(C)(C)c1cc(-c2ccc(Cl)cc2)nc2cc(C(=O)N3CCN(C(=O)CC4(C(=O)O)CCC4)CC3(C)C)oc12
[B] Cc1nc(C(=O)O)cnc1N1CCN(C(=O)c2cc3nc(-c4ccc(Cl)cc4)cc(C(C)(C)C)c3o2)C(C)(C)C1
[C] CC1(C)CCC(c2cc(C(C)(C)C)c3oc(C(=O)N4CCNC(=O)CC4(C)C)cc3n2)CC1
Asked: # rank above entries by pIC50 (max first, min last) Give your ranking as a list of the labels in the requested order.
Given back: A, B, C

[A] CC1(C)CCC(c2cc(C(C)(C)C)c3oc(C(=O)N4CCN(c5nc(C(=O)O)ccc5F)CC4(C)C)cc3n2)CC1
[B] CC(C)(C)c1cc(-c2ccc(Cl)c(F)c2)nc2cc(C(=O)N3CCN(C(=O)CC4(C(=O)O)CCOCC4)CC3(C)C)oc12
[C] CC(C)(C)c1cc(-c2ccc(Cl)c(F)c2)nc2cc(C(=O)N3CCN(c4ncccc4C(=O)O)CC3(C)C)oc12
[D] CC(C)(C)c1cc(-c2ccc(Cl)c(F)c2)nc2cc(C(=O)N3CCN(c4ccncn4)CC3(C)C)oc12
[E] Cc1cccnc1N1CCN(C(=O)c2cc3nc(-c4ccc(Cl)cc4)cc(C(C)(C)C)c3o2)C(C)(C)C1
Asked: Order the records by pIC50, with each subsequent value no larger than the one before. Give your ranking as a list of the labels in the requested order.
Given back: A, B, C, D, E

----------
- assay-target: PAR2 (HT-29 cells) (Homo sapiens, UniProt P55085)
- Construct: host or cells: HT-29
- Sequence (P55085 26-397): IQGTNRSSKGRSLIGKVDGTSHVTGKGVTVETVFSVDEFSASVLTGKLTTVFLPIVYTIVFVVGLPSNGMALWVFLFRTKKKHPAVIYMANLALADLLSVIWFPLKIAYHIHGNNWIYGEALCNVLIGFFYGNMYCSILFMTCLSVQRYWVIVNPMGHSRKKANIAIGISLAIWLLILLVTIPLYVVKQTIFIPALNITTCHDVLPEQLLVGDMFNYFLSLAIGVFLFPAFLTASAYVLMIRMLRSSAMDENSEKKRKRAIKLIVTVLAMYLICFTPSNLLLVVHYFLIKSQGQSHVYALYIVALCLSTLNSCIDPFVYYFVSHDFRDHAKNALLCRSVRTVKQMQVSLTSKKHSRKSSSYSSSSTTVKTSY
- assay-info: Ca FLIPR TETRA assay, ANTAGONIST mode, activator 3.1 U/mL trypsin
- Type: cell-based
- experimental-parameters: HT-29 cells, activator 3.1 U/mL trypsin; maximal antagonist concentration per Method (A: 0.1, 1 or 2 μM; B: 50 μM)
- Description: Protocol for Testing PAR2 Compounds in ANTAGONIST Mode Using the Ca FLIPR^TETRA Assay (384 Well). […] A first read was performed to determine whether the test compounds on their own can activate Ca^2+ responses. The cells were incubated with the compounds for 30 min at r. t. and then read in ANTAGONIST mode in the same plate by stimulating with 6.2 uL of a fixed concentration of the activator: final concentrations 8 μM SLIGKV, 1 U/mL Thrombin, 3.1 U/mL trypsin, or 0.6 μM UTP.
readout-kind: IC50 (nM)

Study these solved cases before continuing.
compound=CC(C)c1cc(-c2ccc(F)cc2)nc2cc(C(=O)N3CCN(C(=O)C4(O)CCC4)CC3)oc12 readout_kind=IC50 unit_spec=nM experimental_result=6200
compound=CC(C)c1cc(-c2ccc(F)cc2)nc2cc(C(=O)N3CCN(C(=O)[C@H](O)CC(C)(C)C)CC3(C)C)oc12 readout_kind=IC50 unit_spec=nM experimental_result=1.1
compound="CCC(C)C(=O)N1CCN(C(=O)c2cc3nc(-c4ccc(F)cc4)cc(C4(C)CC4)c3o2)C(C)(C)C1 (stereo not drawn)" readout_kind=IC50 unit_spec=nM experimental_result=3.2

[P] Cc1cc(-c2cc(C(C)(C)C)c3oc(C(=O)N4CCN(C(=O)[C@H]5C[C@@](C)(O)C5)CC4(C)C)cc3n2)ccc1F
[Q] CC(C)c1cc(-c2ccc(F)cc2)nc2cc(C(=O)N3CCN(C(=O)C4(O)CCC4)C[C@H]3C)oc12
[R] Cc1n[nH]c(C(=O)N2CCN(C(=O)c3cc4nc(C5CC6(CCC6)C5)cc(C(C)(C)C)c4o3)C(C)(C)C2)n1
[S] CC(C)c1cc(-c2ccc(F)cc2)nc2cc(C(=O)N3CCN(C(=O)[C@H](O)CC(C)(C)C)[C@@H](C)C3)oc12
[T] CC(C)(C)c1cc(C2CCC(F)(F)CC2)nc2cc(C(=O)N3CCN(C(=O)c4cnccn4)CC3(C)C)oc12
Asked: Order the records by IC50, with each subsequent value no larger than the one before. Give your ranking as a list of the labels in the requested order.
Given back: Q, T, R, S, P

[A] CC(C)c1cc(-c2ccc(F)cc2)nc2oc(C(=O)N3CCNC(=O)C3(C)C)nc12
[B] CC(C)(O)C(=O)N1CCN(C(=O)c2cc3nc(-c4ccc(F)cc4)cc(C4(C)CC4)c3o2)C(C)(C)C1
Asked: Between A and B , which one shows the larger IC50 value? Please respond with the label that marks your chosen entry.
Given back: A
(A: 7500 nM, B: 33 nM)

[A] CC1(C)CN(C(=O)C2CC(O)(C(F)(F)F)C2)CCN1C(=O)c1cc2nc(-c3ccc(F)cc3)cc(C3(C#N)CC(F)(F)C3)c2o1 (stereo not drawn)
[B] C[C@H]1CN(C(=O)c2cc3nc(-c4ccc(F)cc4)cc(C4(C)CC4)c3o2)CCN1C(=O)C1CCOCC1
[C] Cc1cc(C(=O)N2CCN(C(=O)c3cc4nc(C5CC6(CCC6)C5)cc(C(C)(C)C)c4o3)C(C)(C)C2)[nH]n1
Asked: Order the records by IC50, with each subsequent value no larger than the one before. Give your ranking as a list of the labels in the requested order.
Given back: B, C, A

[P] CC1(C)CCC(c2cc(C(C)(C)C)c3oc(C(=O)N4CCN(C(=O)C5CCC(C(=O)O)O5)CC4(C)C)cc3n2)CC1 (stereo not drawn)
[Q] CC1(C(=O)N2CCN(C(=O)c3cc4nc(-c5ccc(F)cc5)cc(C5(C)CC5)c4o3)C(C)(C)C2)CC1
Asked: Lowest IC50? choose P or Q Please respond with the label that marks your chosen entry.
Given back: Q
(Q: 4.1 nM, P: 20 nM)

[A] CC(C)(C)c1cc(-c2cccc(Cl)c2)nc2cc(C(=O)N3CCNC(=O)C3(C)C)oc12
[B] CN1CCN(C(=O)c2cc3nc(-c4ccc(F)c(Cl)c4)cc(C(C)(C)C)c3o2)C(C)(C)C1=O
[C] CC1(C)CCC(c2cc(C(C)(C)C)c3oc(C(=O)N4CCN(C(=O)[C@H]5C[C@@](C)(O)C5)CC4(C)C)cc3n2)CC1
[D] CC(C)c1cc(-c2ccc(F)cc2)nc2cc(C(=O)N3CCN(C(=O)C4(O)CCC4)C[C@@H]3C)oc12
[E] CC[C@H](C)c1cc(-c2ccc(F)cc2)nc2cc(C(=O)N3CCNC(=O)C3(C)C)oc12
Asked: # rank by IC50, ascending (min first) Give your ranking as a list of the labels in the requested order.
Given back: C, B, E, A, D

[1] CC(C)(C)c1cc(C2CCC(F)(F)CC2)nc2cc(C(=O)N3CCN(C(=O)[C@H]4CC[C@@H](C(=O)O)CC4)CC3(C)C)oc12
[2] CC(C)(C)c1cc(-c2ccc(Cl)c(F)c2)nc2cc(C(=O)N3CCN(c4cn[nH]c4)CC3(C)C)oc12
Asked: Between 1 and 2 , which one shows the larger IC50 value? Please respond with the label that marks your chosen entry.
Given back: 1

[A] [2H]C([2H])([2H])N1CCN(C(=O)c2cc3nc(-c4ccc(Cl)cc4)cc(C(C)(C)C)c3o2)C(C)(C)C1=O
[B] CC(C)c1cc(-c2ccc(F)cc2)nc2sc(C(=O)N3CCN(C(=O)[C@H](O)CC(C)(C)C)[C@@H](C)C3)nc12
Asked: Lowest IC50? choose A or B Please respond with the label that marks your chosen entry.
Given back: A
(A: 1.8 nM, B: 2600 nM)

[I] CC1(c2cc(-c3ccc(F)cc3)nc3cc(C(=O)N4CCN(C(=O)[C@H](O)C5CCCCC5)CC4(C)C)oc23)CC1
[II] CC(C)(C)c1cc(C2CCC(F)(F)CC2)nc2cc(C(=O)N3CCN(C(=O)CNS(C)(=O)=O)C(=O)C3(C)C)oc12
Asked: Lowest IC50? choose I or II Please respond with the label that marks your chosen entry.
Given back: I
